# Tested on: NCI-H322M (Lung Adenocarcinoma)
# assay_comment: combination Emax (second highest fraction inhibited in the dose matrix, 72 h); higher = more inhibition; extreme values may be limits of the assay
observed_property: combination Emax
Hey, just send me the number, nothing else.

molecule | observed_result
COc1cccc(OCCCN)c1-c1cc(Nc2cnc(C#N)cn2)n[nH]1 [Prexasertib] + O=C(c1cc(Cc2n[nH]c(=O)c3ccccc23)ccc1F)N1CCN(C(=O)C2CC2)CC1 [Olaparib] (first compound max 1 µM, 7x7, partner max 10 µM) | 0.83
Cc1c2c(nn1C)CSCc1cc(n(C)n1)CSc1cc(c3ccccc3c1)OCCCc1c(C(=O)O)n(C)c3c-2c(Cl)ccc13 [AZD5991] + CCN(CCO)CCCOc1ccc2c(Nc3cc(CC(=O)Nc4cccc(F)c4)[nH]n3)ncnc2c1 [AZD2811] (first compound max 1 µM, 7x7, partner max 1 µM) | 0.188
Cc1c2c(nn1C)CSCc1cc(n(C)n1)CSc1cc(c3ccccc3c1)OCCCc1c(C(=O)O)n(C)c3c-2c(Cl)ccc13 [AZD5991] + CN(C)CCCOc1ccc(-c2ccc3ncc4c(c3c2)n(C2CCOCC2)c(=O)n4C)cn1 [AZD0156] (first compound max 1 µM, 7x7, partner max 1 µM) | 0.279
Cc1cc2ncnn2cc1Nc1ncc2c(n1)n(C1CCOCC1)c(=O)n2C [AZD7648] + O=C(c1cc(Cc2n[nH]c(=O)c3ccccc23)ccc1F)N1CCN(C(=O)C2CC2)CC1 [Olaparib] (first compound max 10 µM, 7x7, partner max 10 µM) | 0.325
CN(CCO)CC[C@H](CSc1ccccc1)Nc1ccc(S(=O)(=O)NC(=O)c2ccc(N3CCC([C@@H](O)c4ccccc4-c4ccc(Cl)cc4)CC3)cc2)cc1S(=O)(=O)C(F)(F)F [AZD4320] + CN(C)CCCOc1ccc(-c2ccc3ncc4c(c3c2)n(C2CCOCC2)c(=O)n4C)cn1 [AZD0156] (first compound max 1 µM, 7x7, partner max 1 µM) | 0.172

Input: Dear colleague, I am looking for the recorded combination Emax of the following molecule: Cn1cnc2c(F)c(Nc3ccc(Br)cc3Cl)c(C(=O)NOCCO)cc21 [Selumetinib] + CC(C)n1c(=O)n(C)c2cnc3cc(F)c(-c4ccc(OCCCN5CCCCC5)nc4)cc3c21 [AZD1390] (first compound max 10 µM, 7x7, partner max 0.3 µM)
Output: 0.527

Input: And for COc1nnc2ccc(N3CCC(c4ccc(OCCN5CCN(C)C(=O)[C@H]5C)cc4)CC3)nn12 [AZD5153] + CN(CC[C@H](CSC1=CC=CC=C1)NC2=C(C=C(C=C2)S(=O)(=O)NC(=O)C3=CC=C(C=C3)N4CCC(CC4)[C@H](C5=CC=CC=C5C6=CC=C(C=C6)Cl)O)S(=O)(=O)C(F)(F)F)CCO [AZD4320] (first compound max 1 µM, 7x7, partner max 1 µM) ?
Output: 0.563

----------
# Test system: EMC-BAC-2 (Non-Small Cell Lung Carcinoma);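 note: after 72 h of two-drug dosing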
# assay_comment: Bliss excess, mean over the matrix (fraction); higher = more synergy
observed_property: Bliss excess
API note: the answer field is a bare number with no unit suffix.

compound | Bliss excess
Cc1c2c(nn1C)CSCc1cc(n(C)n1)CSc1cc(c3ccccc3c1)OCCCc1c(C(=O)O)n(C)c3c-2c(Cl)ccc13 [AZD5991] + Cn1cnc2c(F)c(Nc3ccc(Br)cc3Cl)c(C(=O)NOCCO)cc21 [Selumetinib] (first compound max 1 µM, 7x7, partner max 3 µM) | 0.0081

Input: What value of Bliss excess has been recorded for this entry: C[C@@H](c1ccc2nccn2c1)n1nnc2ncc(-c3cnn(C)c3)nc21 [Savolitinib] + CC1(C)CCC(CN2CCN(c3ccc(C(=O)NS(=O)(=O)c4ccc(NCC5CCOCC5)c([N+](=O)[O-])c4)c(Oc4cnc5[nH]ccc5c4)c3)CC2)=C(c2ccc(Cl)cc2)C1 [Venetoclax] (first compound max 1 µM, 7x7, partner max 1 µM)
Output: -0.0816

The values you see were collected from the supplement of paper PMC11061612.
